Provenance of the data: PubChem BioAssay AID1468

target_of_assay: Microtubule-associated protein tau (Homo sapiens) (UniProt P10636)
Sequence (P10636 561-689 P618L limits assumed): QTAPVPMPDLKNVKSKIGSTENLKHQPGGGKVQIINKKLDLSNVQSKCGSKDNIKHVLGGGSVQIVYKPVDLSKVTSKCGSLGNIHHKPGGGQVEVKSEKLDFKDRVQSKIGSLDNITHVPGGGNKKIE
assay_method_text: qHTS for Inhibitors of Tau Fibril Formation, Fluorescence Polarization; further: nearly all actives have a fitted effect of over 55% in size
conditions_used: K18 P301L tau heparin fibrillization, Alexa594 FP, 6 h; series mostly up to 57.7 µM
From the text: NIH Molecular Libraries Probe Production Network [MLPCN] NIH Chemical Genomics Center [NCGC] Assay Provider: Carlo Ballatore, University of Pennsylvania The microtubule-associated protein tau is an abundant protein in the axons of neurons that stabilizes microtubules. With its ability to modulate microtubule dynamics, tau contributes directly or indirectly, to key structural and regulatory cellular functions. […]
Screen size: about 280,000 compounds; about 1,100 (0.39%) were called active. Not shown: some 7% with an inconclusive outcome. The call rests on the fitted dose curve; in most records, active means well fitted inhibition curve with a large enough effect; inconclusive means small, poorly fitted or top-dose-only effect, or effect the other way; inactive means flat fitted curve, though single readings scatter. Only a selection was taken, and actives are over-represented in it overall.
Outcome codes: y for active, n for inactive

| molecule | qualitative_label |
| --- | --- |
| CCOC(=O)C1=C(C)N=c2s/c(=C\C(=O)OC)c(=O)n2C1c1ccc(OC)cc1 (stereo not given) | n |
| Cc1cccc(NC(=O)c2cccc(C(F)(F)F)c2)c1 | n |
| O=C(OCc1cc(=O)n2nc(C3CC3)sc2n1)c1ccccc1Cl | n |
| CCOC(=O)N1CCc2c(sc(NCc3cccc(F)c3)c2C(=O)Nc2ccccc2OCC)C1 | n |
| Cc1cc(C)c(NC(=O)CCc2c(C)nc3c(c(C)nn3C(C)(C)C)c2C)c(C)c1 | n |
| Cc1ccc(-c2nnc(SCC(=O)NCc3ccccc3)nc2-c2ccc(C)cc2)cc1 | n |
| COc1ccc(Cl)cc1NC(=O)C(C)Sc1nc2c(c(=O)[nH]1)CCCC2 (stereo not given) | n |
| CN(C)c1cccc(C(=O)Nc2nc3ccc(S(=O)(=O)NC(C)(C)C)cc3s2)c1 | n |
| CSc1ncc(Cl)c(C(=O)Nc2ccc(S(=O)(=O)N3CCCC(C)C3)cc2)n1 (stereo not given) | n |
| COc1ccc(OC)c(C2C3=C(N=c4s/c(=C\c5cccc(O)c5)c(=O)n42)c2ccccc2CC3)c1 (stereo not given) | y |

====

target_of_assay: Microtubule-associated protein tau (Homo sapiens)
assay_method_text: qHTS for Inhibitors of Tau Fibril Formation, Fluorescence Polarization; further: nearly all actives have a fitted effect of over 55% in size
conditions_used: K18 P301L tau heparin fibrillization, Alexa594 FP, 6 h; series mostly up to 57.7 µM
About 1,100 (0.39%) of roughly 280,000 compounds were called active. Another 7% or so got no clear call; they are omitted. Calls follow the shape of the dose curve; as a rule, active = well fitted inhibition curve with a large enough effect; inconclusive = small, poorly fitted or top-dose-only effect, or effect the other way; inactive = flat fitted curve, though single readings scatter. This excerpt belongs to a sample that is enriched for actives.
Outcomes: active, inactive

| compound | qualitative_label |
| --- | --- |
| CCCC(=O)Nc1cc(C(=O)NCc2ccc(OC)cc2)ccc1S(=O)(=O)c1ccc(Cl)cc1 | inactive |
| CN(c1ccccc1)c1nc(N)c([N+](=O)[O-])c(NCc2ccco2)n1 | inactive |
| Cc1cccc(Nc2cc(C)nc(-n3nc(C)cc3C)n2)c1 | inactive |
| COc1ccc(Nc2nc(Cl)nc(NCc3ccco3)n2)cc1 | inactive |
| CCN(CC)S(=O)(=O)c1ccc2c(c1)N(CC(=O)NCC(C)c1ccccc1)C(=O)CO2 (stereo not given) | inactive |
| CCOc1ccc(CNC(=O)Cn2cc3c(n2)-c2c(oc(C(=O)N4CCCC4)c2C)CC3)cc1 | inactive |
| COc1cccc(Nc2nc3ccccc3c3nncn23)c1 | inactive |
| CCN1CCc2nc3sc(C(=O)Nc4ccccc4OC(F)(F)F)c(N)c3cc2C1 | inactive |
| COc1cccc(Nc2nc(N)c([N+](=O)[O-])c(NCc3ccco3)n2)c1 | active |
| O=C(Nc1ccccc1)Nc1ccccc1C(=O)NCc1ccco1 | inactive |
